Can you tell me RP-LC retention time for the items I'm about to list?
experiment: gradient 5% acetonitrile 3 min, to 50% in 2 min, to 85% in 15 min, held 3 min, 100 µL/min; conditions: column: Zorbax Extend-C18 2.1 x 50 mm; eluents: water / acetonitrile, 0.1% formic acid
# unit: s | format: bare number

What the record says about O=C(c1ccsc1)N1CCC2(CC1)NC(=O)N(Cc1ccccc1)C2=O : RP-LC retention time is 754

What the record says about COc1cc2c(cc1OC)C1C(C(=O)NCCN3CCOCC3)c3ccccc3C(=O)N1CC2 (stereo not given) : RP-LC retention time is 590

What the record says about O=S(=O)(c1ccccc1F)N1CCC2(CCN(c3cccnc3)C2)C1 (stereo not given) : RP-LC retention time is 644

What the record says about CCc1noc(-c2cccnc2N2CCCN(Cc3ccccc3Cl)CC2)n1 : RP-LC retention time is 679

What the record says about CC1(C(=O)Nc2cccc(F)c2)CCCCC(=O)N1 (stereo not given) : RP-LC retention time is 694

What the record says about COc1ccc(-c2csc(NC(=O)COc3ccc(Cl)c(Cl)c3)n2)cc1 : RP-LC retention time is 1200

What the record says about O=C(C1CCN(c2nnc3ccc(Cl)cn23)CC1)N1CCOCC1 : RP-LC retention time is 599

What the record says about CCn1c(C(=O)N2CCC(C(=O)NCc3cccc(OC)c3)CC2)cc2occc21 : RP-LC retention time is 795

What the record says about COc1ccc(Nc2nccc(C3CCCN(C(=O)C4CCCCC4)C3)n2)cc1 (stereo not given) : RP-LC retention time is 997

What the record says about O=C(Cc1cccc(F)c1)N1CCN(C(=O)c2nnn3c2COC(c2ccccc2)C3)CC1 (stereo not given) : RP-LC retention time is 854

What the record says about Cc1cc2c(c(=O)n(-c3ccccc3)c(=O)n2CC(=O)Nc2ccc(F)c(Cl)c2)n1C : RP-LC retention time is 902

What the record says about O=C(CCc1c[nH]c2ccccc12)N1CC(n2cc(COCC3CC3)nn2)C1 : RP-LC retention time is 719

What the record says about COc1ccc(-n2c(=O)n(C)c(=O)c3cc(C(=O)Nc4ccccc4OC)cnc32)cc1 : RP-LC retention time is 892

What the record says about CC(=O)Nc1cccc(C(=O)NCCc2c[nH]c3ccc(F)cc23)c1 : RP-LC retention time is 711

What the record says about Cc1oc(-c2[nH]ncc2C(=O)N(C)C)cc1S(=O)(=O)NCc1ccccn1 : RP-LC retention time is 833

What the record says about Cc1cc2c(cc1CNC(=O)c1ccco1)OCCCO2 : RP-LC retention time is 750

What the record says about O=C(NC1CC1)C1CCCN(S(=O)(=O)c2c[nH]c(C(=O)N3CCCCCC3)c2)C1 (stereo not given) : RP-LC retention time is 702

What the record says about CN1C(=O)c2cccc(NC(=O)c3ccc(S(=O)(=O)N4CCOCC4)cc3)c2C1=O : RP-LC retention time is 813

What the record says about O=C(Nc1cccn2nc(C3CCC3)nc12)c1cccs1 : RP-LC retention time is 861

What the record says about Cc1ccc(NS(=O)(=O)c2cc(-c3[nH]ncc3C(=O)N3CCCC3)oc2C)cc1Cl : RP-LC retention time is 803

* * *

assay: gradient 5% acetonitrile 3 min, to 50% in 2 min, to 85% in 15 min, held 3 min, 100 µL/min; conditions: column: Zorbax Extend-C18 2.1 x 50 mm; eluents: water / acetonitrile, 0.1% formic acid
readout.label: RP-LC retention time

What the record says about O=C(C1COCC(=O)N1Cc1ccccc1)N1CCN(c2ccc(C(F)(F)F)cn2)CC1 (centres undefined) : RP-LC retention time is 782 s

What the record says about Cc1ccc(CNC(=O)C2(C)CCN(S(=O)(=O)c3cc(C)cc(C)c3)CC2)cc1 : RP-LC retention time is 1030 s

What the record says about COc1ccc(C(O)CN2CCN(c3cccc(OC)c3)CC2)cc1 (centres undefined) : RP-LC retention time is 647 s

What the record says about Cc1nnc(-c2ccc3ccn(CC(=O)Nc4cccc(C)c4C)c3c2)o1 : RP-LC retention time is 798 s

What the record says about CCCCNC(=O)c1ccccc1NC(=O)C1CCN(C(=O)C(C)(C)C)CC1 : RP-LC retention time is 874 s

What the record says about CC(NC(=O)CN1C(=O)C2CCCCN2c2ccc(S(=O)(=O)N3CCCC3)cc21)c1ccccc1 (centres undefined) : RP-LC retention time is 956 s

What the record says about COCCNc1nc(-c2ccc(C)cc2)nnc1C : RP-LC retention time is 608 s

What the record says about COc1ccc(NC(=O)NCC(c2cccnc2)c2cn(C)c3ccccc23)c(OC)c1 (centres undefined) : RP-LC retention time is 697 s

What the record says about CC(C)(C)c1ccc(C(CNC(=O)c2cc(-c3ccc4c(c3)OCCO4)on2)N2CCCC2)cc1 (centres undefined) : RP-LC retention time is 844 s
